B1: library; numbered along this chain (parent)
chain: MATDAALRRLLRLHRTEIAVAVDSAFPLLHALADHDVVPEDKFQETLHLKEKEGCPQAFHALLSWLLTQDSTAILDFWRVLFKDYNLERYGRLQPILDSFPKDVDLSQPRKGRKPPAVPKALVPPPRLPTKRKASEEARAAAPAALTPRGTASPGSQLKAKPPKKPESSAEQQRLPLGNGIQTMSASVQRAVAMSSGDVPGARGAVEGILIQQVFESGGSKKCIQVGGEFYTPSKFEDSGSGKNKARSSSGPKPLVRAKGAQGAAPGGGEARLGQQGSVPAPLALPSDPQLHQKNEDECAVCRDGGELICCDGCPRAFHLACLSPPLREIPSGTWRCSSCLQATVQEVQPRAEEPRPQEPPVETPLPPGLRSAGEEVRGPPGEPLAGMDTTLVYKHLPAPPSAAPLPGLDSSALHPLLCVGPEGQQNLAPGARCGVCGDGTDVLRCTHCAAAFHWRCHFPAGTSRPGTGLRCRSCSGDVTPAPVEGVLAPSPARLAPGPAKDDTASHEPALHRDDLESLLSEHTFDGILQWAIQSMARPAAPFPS

# Variants of: B1
# Assay Info: AIRE transcriptional activation functional score (insulin promoter-GFP; nonsense median 0, synonymous median 1) (normalised score); higher = higher AIRE activity (more reporter activation)
# Condition Info: with insulin promoter-GFP reporter in HEK293
Measured AIRE transcriptional activation functional score, listed per entry for reference.
I only need the number, thanks.

The following variants have reported results that may help.
S411N 0.99
Q349D 0.985
A352N 1.01

Here's the next entry for you.
So, `G267Y` ? Its AIRE transcriptional activation functional score was 1.02
